# TESTED_ON: recombinant human MMP-9 (Homo sapiens, UniProt P14780)
# Sequence (P14780 107-707 limits assumed): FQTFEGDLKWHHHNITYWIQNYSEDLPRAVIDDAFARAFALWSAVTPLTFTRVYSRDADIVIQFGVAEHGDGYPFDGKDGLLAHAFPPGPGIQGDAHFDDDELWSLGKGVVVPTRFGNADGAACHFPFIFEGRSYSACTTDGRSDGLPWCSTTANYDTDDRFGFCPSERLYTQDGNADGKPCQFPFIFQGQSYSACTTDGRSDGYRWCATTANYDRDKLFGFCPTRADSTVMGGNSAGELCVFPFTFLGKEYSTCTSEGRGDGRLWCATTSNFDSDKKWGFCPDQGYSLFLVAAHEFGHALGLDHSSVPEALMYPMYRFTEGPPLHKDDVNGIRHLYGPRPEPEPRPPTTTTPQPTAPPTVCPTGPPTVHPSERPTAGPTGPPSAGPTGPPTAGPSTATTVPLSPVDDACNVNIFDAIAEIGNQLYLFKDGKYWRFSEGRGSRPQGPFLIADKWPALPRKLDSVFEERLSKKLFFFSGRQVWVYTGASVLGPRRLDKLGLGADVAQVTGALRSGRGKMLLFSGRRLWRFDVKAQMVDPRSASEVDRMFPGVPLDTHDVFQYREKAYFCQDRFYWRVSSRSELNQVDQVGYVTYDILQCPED
# ASSAY_TEXT: Inhibition of MMP-9, fluorescence quenched peptide substrate McaPLGL(Dpa)AR-NH2
# EXPERIMENTAL_CONDITIONS: substrate McaPLGL(Dpa)AR-NH2 4 µM; 30 min pre-incubation at room temperature; calculated from IC50; read-out: Ki ± s.d. MMP-9
MEASUREMENT_KIND: Ki
Please answer using the number first and the unit second.

// field: Ki; key: CC(N)C(=O)NC(C)C(=O)NCCc1ccc(NC(=O)c2ccc(CN(Cc3ccccn3)Cc3ccccn3)nc2)cc1 (stereo not shown) [Zn155] ; value = 26 µM

// field: Ki; key: COC(=O)Cc1ccc(NC(=O)c2ccc(CN(Cc3ccccn3)Cc3ccccn3)nc2)cc1 [Zn244] ; value = 22 µM

// field: Ki; key: O=C(O)c1ccc(CN(CCN(Cc2ccccn2)Cc2ccccn2)Cc2ccc(C(=O)O)cn2)nc1 [Zn239] ; value = 58 µM

// field: Ki; key: CCN(C[C@H](O)[C@@H](O)[C@H](O)[C@H](O)CO)C(=O)c1ccc(CN(Cc2ccccn2)Cc2ccccn2)nc1 [Zn225] ; value = 28 µM

// field: Ki; key: c1ccc(CN(Cc2ccccn2)Cc2ccccn2)nc1 [TPA, tri(2-pyridinemethyl)amine, reference compound] ; value = 15 µM

// field: Ki; key: O=C(NCc1ccc(CN(Cc2ccccn2)Cc2ccccn2)nc1)C1OC(O)C(O)C(O)C1O (stereo not shown) [Zn227] ; value = 77 µM

// field: Ki; key: O=C(NC[C@H](O)[C@@H](O)[C@H](O)[C@H](O)CO)c1ccc(CN(Cc2ccccn2)Cc2ccccn2)nc1 [Zn230] ; value = 22 µM

// field: Ki; key: O=C(O)c1ccc(CN(Cc2ccccn2)Cc2ccccn2)nc1 [Zn146] ; value = 21 µM

// field: Ki; key: CC(N)C(=O)NC(C)C(=O)N1CCN(C(=O)c2ccc(CN(Cc3ccccn3)Cc3ccccn3)nc2)CC1 (stereo not shown) [Zn177] ; value = 56 µM

// field: Ki; key: O=C(NCCc1ccc(NC(=O)c2ccc(CN(Cc3ccccn3)Cc3ccccn3)nc2)cc1)c1ccc(CN(Cc2ccccn2)Cc2ccccn2)nc1 [Zn175] ; value = 6 µM

* * *

MEASUREMENT_KIND: pKi
Please keep in mind that pKi is minus log10 of the molar concentration; only the number is needed.

For the compound O=C(NCCc1ccc(NC(=O)c2ccc(CN(Cc3ccccn3)Cc3ccccn3)nc2)cc1)c1ccc(CN(Cc2ccccn2)Cc2ccccn2)nc1 [Zn175] , the measured pKi on aureolysin (ALN) (Staphylococcus aureus, UniProt P81177) was 4.85

For the compound CC(N)C(=O)NC(C)C(=O)NCCc1ccc(NC(=O)c2ccc(CN(Cc3ccccn3)Cc3ccccn3)nc2)cc1 (centres unmarked) [Zn155] , the measured pKi on aureolysin (ALN) (Staphylococcus aureus, UniProt P81177) was 4.22

For the compound c1ccc(CN(Cc2ccccn2)Cc2ccccn2)nc1 [TPA, tri(2-pyridinemethyl)amine, reference compound] , the measured pKi on aureolysin (ALN) (Staphylococcus aureus, UniProt P81177) was 4.80

For the compound O=C(NC[C@H](O)[C@@H](O)[C@H](O)[C@H](O)CO)c1ccc(CN(Cc2ccccn2)Cc2ccccn2)nc1 [Zn230] , the measured pKi on aureolysin (ALN) (Staphylococcus aureus, UniProt P81177) was 4.70

For the compound O=C(O)c1ccc(CN(Cc2ccccn2)Cc2ccccn2)nc1 [Zn146] , the measured pKi on aureolysin (ALN) (Staphylococcus aureus, UniProt P81177) was 4.60
